Listing of recorded mass density by entry.
- protocol_conditions: 298.15 K; 101.33 kPa; Liquid; Vibrating tube method
± gives the expanded uncertainty stated by the source.
Be sure to follow the number with its unit.

[[record]]
molecule = "C[N+](=O)[O-]"
parameter = "mass density"
result = "1130.15 ± 1.8 kg/m3"

[[record]]
molecule = "CC#N"
parameter = "mass density"
result = "776.68 ± 0.2 kg/m3"

[[record]]
molecule = "CO"
parameter = "mass density"
result = "786.61 ± 0.19 kg/m3"


Which value of mass density has been reported for NC=O [formamide] in the records?
1129.22 ± 0.59 kg/m3

====

- protocol_conditions: 298.15 K; 101.33 kPa; Liquid; Concentric cylinders viscometry
Strictly below 0.6 mPa·s in viscosity: MET. Otherwise: NOT MET.

Field: example entries. Status: answers known.
[[record]]
compound = "CC#N"
cat = "MET"

[[record]]
compound = "CO"
cat = "MET"

[[record]]
compound = "NC=O [formamide]"
cat = "NOT MET"

[[record]]
compound = "O"
cat = "NOT MET"


We now examine a further compound.
Determine whether this compound shows viscosity lower than 0.6 mPa·s (ties excluded): C[N+](=O)[O-]
NOT MET
